// cross-source set; read-out = Ki; system = C-C chemokine receptor type 3 (Homo sapiens, UniProt P51677)
Sequence (P51677 whole entry): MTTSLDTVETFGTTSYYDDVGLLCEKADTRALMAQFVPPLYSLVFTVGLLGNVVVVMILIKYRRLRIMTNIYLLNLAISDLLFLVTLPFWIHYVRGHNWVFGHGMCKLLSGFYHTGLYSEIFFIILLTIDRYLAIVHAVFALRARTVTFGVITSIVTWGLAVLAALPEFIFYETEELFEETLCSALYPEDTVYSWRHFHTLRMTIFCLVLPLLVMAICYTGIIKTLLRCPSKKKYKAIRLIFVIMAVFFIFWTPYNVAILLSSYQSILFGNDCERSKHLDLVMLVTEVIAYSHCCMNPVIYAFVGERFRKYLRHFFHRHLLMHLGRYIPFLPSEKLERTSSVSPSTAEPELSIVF
Write the value in nM as a bare number.

Answered examples (2):
COMPOUND	ASSAY READOUT	MEASURE UNIT	MEASURED NUMBER
COc1ccc(NC(=O)NCC(c2ccc(C(C)(C)C)cc2)N2CCN(C3CCCCC3)CC2)cc1 (stereo not given)	Ki	nM	1980
N=c1c2c3c(sc2nc2n1CC/C2=C\c1ccccc1Br)CCCC3	Ki	nM	350

Prompt: Under C-C chemokine receptor type 3 (Homo sapiens, UniProt P51677): Ki value of O=C(NS(=O)(=O)c1ccccc1Cl)N1CCC(N2CCC(Oc3ccc(Cl)c(Cl)c3)CC2)CC1 ?
Response: 5.01

Prompt: Under C-C chemokine receptor type 3 (Homo sapiens, UniProt P51677): Ki value of COc1ccc(C(CNCCc2ccc(C(F)(F)F)cc2)N2CCN(C3CCCCC3)CC2)cc1 (stereo not given) ?
Response: 929

Prompt: Under C-C chemokine receptor type 3 (Homo sapiens, UniProt P51677): Ki value of Cc1c(Cl)ccc(OC2CCN(C3CCN(C(=O)NS(=O)(=O)c4ccc(N(C)C)cc4)CC3)CC2)c1Cl ?
Response: 3.16
